These data points were gathered from ChEMBL document CHEMBL3244057.

- Tested on: Mus musculus
- PROTOCOL NOTES: Taming activity in po dosed electrofootshock-induced fighting ddY mouse
- Type: functional
READOUT KIND: ED50

Can you share its ED50? I mean this compound: Cc1cc2n(c1C)-c1ccccc1C(c1ccccc1)=NC2
> 100 mg/kg

Here is the next compound: Fc1ccccc1C1=NCc2cccn2-c2ccc(Cl)cc21
39 mg/kg

For Cc1ccc2n1-c1ccccc1C(c1ccccc1)=NC2 then?
> 100 mg/kg

Then what about the compound Cc1ccc2n1-c1ccc(Cl)cc1C(c1ccccc1)=NC2 ?
> 100 mg/kg

Another compound to check: Cc1ccc2n1-c1ccc([N+](=O)[O-])cc1C(c1ccccc1)=NC2
> 100 mg/kg

----------
Please provide measured ED50 for the entries that follow.
- Test system: Mus musculus
- PROTOCOL NOTES: Toxicity in po dosed ddY mouse assessed as motor incoordination by rotarod test
- Format: organism-based
- PROTOCOL CONDITIONS: in vivo

Data request, read-out ED50, for Cc1cc2n(c1C)-c1ccccc1C(c1ccccc1)=NC2
> 100 mg/kg

Could you do the same for Cc1cc2n(c1C)-c1ccc(Cl)cc1C(c1ccccc1)=NC2 , please?
> 100 mg/kg

Again, but for Cc1ccc2n1-c1ccc(Cl)cc1C(c1ccccc1Cl)=NC2
100 mg/kg

For Cc1cc2n(c1C)-c1ccc(Cl)cc1C(c1ccccc1F)=NC2 then?
> 100 mg/kg

Similarly, CCc1cc2n(c1C)-c1ccc(Cl)cc1C(c1c(F)cccc1F)=NC2 ?
> 100 mg/kg

Same read-out for Clc1ccc2c(c1)C(c1ccccc1)=NCc1cccn1-2 ?
> 100 mg/kg

Param item: CCc1cc2n(c1C)-c1ccc(Cl)cc1C(c1ccccc1Cl)=NC2
16.2 mg/kg

Consider next the molecule CCc1cc2n(c1C)-c1ccc(Cl)cc1C(c1ccccc1F)=NC2 in the same way.
> 100 mg/kg

// repeat for Cc1cc(C)n2c1CN=C(c1ccccc1F)c1cc(Cl)ccc1-2 and report
> 30 mg/kg

Repeat for the following molecule: Cc1ccc2n1-c1ccccc1C(c1ccccc1)=NC2
> 100 mg/kg

What do we get for Cc1ccc2n1-c1ccc(Cl)cc1C(c1ccccc1F)=NC2 ?
> 100 mg/kg

Quick one: CN1C(=O)CN=C(c2ccccc2)c2cc(Cl)ccc21 [DIAZEPAM]
5.4 mg/kg

Same question for Clc1ccc2c(c1)C(c1ccccc1Cl)=NCc1cccn1-2 please.
> 100 mg/kg

// query: Cc1cc2n(c1C)-c1ccc(Cl)cc1C(c1ccccc1Cl)=NC2
40 mg/kg

Lookup Cc1ccc2n1-c1ccc([N+](=O)[O-])cc1C(c1ccccc1)=NC2
> 100 mg/kg

Record: Fc1ccccc1C1=NCc2cccn2-c2ccc(Cl)cc21
> 100 mg/kg

What would you report for Cc1ccc2n1-c1ccc(Cl)cc1C(c1ccccc1)=NC2 ?
> 100 mg/kg

Next record, please: Cc1cc(C)n2c1CN=C(c1c(F)cccc1F)c1cc(Cl)ccc1-2
16.2 mg/kg

Another molecule: Cc1cc(C)n2c1CN=C(c1ccccc1Cl)c1cc(Cl)ccc1-2
15.5 mg/kg

----------
- Test system: Mus musculus
- PROTOCOL NOTES: Induction of sedative activity in po dosed ddY mouse assessed as potentiation of thiopental-induced response
- Format: functional
READOUT KIND: ED50 (mg/kg)
A number alone suffices; assume mg/kg.

Query the reported ED50 for Mus musculus; item: Cc1cc(C)n2c1CN=C(c1ccccc1F)c1cc(Cl)ccc1-2
2.4

// same read-out, input: Cc1ccc2n1-c1ccc(Cl)cc1C(c1ccccc1F)=NC2
6.9

Field entry: Clc1ccc2c(c1)C(c1ccccc1Cl)=NCc1cccn1-2
18

Now try CN1C(=O)CN=C(c2ccccc2)c2cc(Cl)ccc21 [DIAZEPAM] .
0.3

And CCc1cc2n(c1C)-c1ccc(Cl)cc1C(c1ccccc1F)=NC2 ?
2.2

Moving on to the next molecule: CCc1cc2n(c1C)-c1ccc(Cl)cc1C(c1c(F)cccc1F)=NC2
3

Also Cc1ccc2n1-c1ccccc1C(c1ccccc1)=NC2 ?
22

Then Clc1ccc2c(c1)C(c1ccccc1)=NCc1cccn1-2 ?
44

Next molecule: CCc1cc2n(c1C)-c1ccc(Cl)cc1C(c1ccccc1Cl)=NC2
0.6

Try this molecule next: Cc1ccc2n1-c1ccc([N+](=O)[O-])cc1C(c1ccccc1)=NC2
5.8

Item: Cc1cc2n(c1C)-c1ccc(Cl)cc1C(c1ccccc1)=NC2
21

----------
- System: Mus musculus
- PROTOCOL NOTES: Induction of sedative activity in po dosed ddY mouse assessed as potentiation of thiopental-induced response
- Type: functional
READOUT KIND: ED50 (mg/kg)
Quick reminder: number only, in mg/kg, skip the unit.

Record request: ED50 value, item Cc1ccc2n1-c1ccc(Cl)cc1C(c1ccccc1)=NC2
46

And Cc1cc(C)n2c1CN=C(c1ccccc1Cl)c1cc(Cl)ccc1-2 ?
0.34

How about Cc1cc(C)n2c1CN=C(c1c(F)cccc1F)c1cc(Cl)ccc1-2 ?
0.7

Cc1cc2n(c1C)-c1ccc(Cl)cc1C(c1ccccc1Cl)=NC2 ?
2.6

How about Cc1ccc2n1-c1ccc(Cl)cc1C(c1ccccc1Cl)=NC2 ?
2.8

Continue with Cc1cc2n(c1C)-c1ccc(Cl)cc1C(c1ccccc1F)=NC2
8

Please give the result for Fc1ccccc1C1=NCc2cccn2-c2ccc(Cl)cc21 too.
5.2

----------
- PROTOCOL NOTES: Ratio of compound ED50 to diazepam ED50 for toxicity in po dosed ddY mouse assessed as motor incoordination
- Type: organism-based
- PROTOCOL CONDITIONS: in vivo, read-out: Ratio ED50
READOUT KIND: selectivity ratio
Answer as a number with no unit attached.

Item Cc1cc(C)n2c1CN=C(c1ccccc1Cl)c1cc(Cl)ccc1-2 has what recorded selectivity ratio?
2
